Entries and their GI50 values follow.
Tested on: U-251
assay_explanation: NCI tumour cell line growth inhibition, 48 h
Calls of active or inactive are those of the source. Cut-off read from the data, not from the text of the source: active = GI50 up to about 1.1 µM and inactive = higher.
endpoint_name: GI50

OCC(O)COCn1nncc1Cn1ncc2c(SCc3ccccc3)ncnc21 (stereo not given)
> 100 µM (inactive)
COC(OC)C1OC(CO)C(n2ccc(N)nc2=O)C1O (stereo not given)
> 100 µM (inactive)
O=[As](O)(O)c1cc(/N=N/c2ccc(-c3ccc(/N=N/c4cc([As](=O)(O)O)c(O)cc4O)cc3)cc2)c(O)cc1O
> 100 µM (inactive)
Nc1nc(-c2ccccc2)nc2c1[n+]([O-])c1ccccc1[n+]2[O-]
> 100 µM (inactive)
CCCCc1c2c(nc3c1CCC/C3=C\c1ccccc1)/C(=C/c1ccccc1)CCC2
> 100 µM (inactive)
CC(OC(=O)C(CC(=O)OC(C)(C)C)NC(=O)OC(C)(C)C)C(=O)OCc1ccccc1 (stereo not given)
> 100 µM (inactive)
CCCCCCCCCCCCCCCCC(C(=O)O)C(O)(CC(=O)O)C(=O)O (stereo not given)
16.7 µM (inactive)
CC1(C)OCC(/C=C\C(O)CC2(C)OCCO2)CO1 (stereo not given)
> 100 µM (inactive)
Cc1c(O)c(O)cc[n+]1C1OC(CO)C(O)C1O (stereo not given)
> 100 µM (inactive)
COc1cc(C(C)c2cc3c(cc2OCCCCCOc2cc4c(cc2C(C)c2cc(OC)c(OC)c(OC)c2)OCO4)OCO3)cc(OC)c1OC (stereo not given)
> 100 µM (inactive)

----------
System: HCC 2998
assay_explanation: NCI tumour cell line growth inhibition, 48 h
The source made the active and inactive calls. No stated cut-off is given here; in the data, active = GI50 up to about 1.1 µM and inactive = higher.
Classes used: class 1 for active, class 0 for inactive

CCOC(=O)[C@H](CCCNC(=O)OC(C)(C)C)NCc1ccc(OC)c(OC)c1
class 0
CCOC(=O)C1(C)C2=CC=C(O2)C(C)(C)C2=CC=C(O2)C(C)(C)C2=CC=C(O2)C(C)(C)C2=CC=C1O2
class 0
Cc1c2cc[n+](C)cc2c(C)c2c1[nH]c1ccc(O)cc12 [ELLIPTINIUM ACETATE]
class 0
COC(=O)[C@]1(c2cc3ccccc3n2S(=O)(=O)c2ccccc2)CC2CN(C(=O)OCc3ccccc3)C1C1OC(C)(C)OC21 (stereo not given in full)
class 0
CN(C)CCNC(=O)c1c(O)ccc2c1c1c(n2CCc2ccccc2)C(=O)c2ccccc2C1=O
class 0
CCOc1ccc2nc3nc(O)nc(C)c3c(NC(C)(CO)CO)c2c1
class 0
Cc1cc2nc3[nH]nc(N)c3nc2cc1C
class 0
CCOC(=O)c1ccc(/N=C2/C(=S)N(c3ccc(C(=O)OCC)cc3)C(=N)N2/N=C/c2ccccc2)cc1
class 0
CC(C)c1ccc2c(c1)CCC1C(C)(CN)CCCC21C (stereo not given)
class 1
C/N=c1\ss/c(=N\C(=S)N(C)C)n1C
class 0

----------
Test system: U-251
assay_explanation: NCI tumour cell line growth inhibition, 48 h
The source made the active and inactive calls. Rule as the data show it: active = GI50 up to about 1.1 µM and inactive = higher.
Classes used: 1.0 for active, 0.0 for inactive

C=CCN1C(=O)CS/C1=N/NC(=O)C(O)(c1ccccc1)c1ccccc1
0.0
COc1ccccc1Cn1c2c(c3c(C(=O)NCCN(C)C)c(O)ccc31)C(=O)c1ccccc1C2=O
0.0
CN(C)CCNC(=O)c1c(O)ccc2c1c1c(n2CCc2ccccc2)C(=O)c2ccccc2C1=O
0.0
COC(=O)c1sc(=O)sc1SCc1cccc(CSc2sc(=O)sc2C(=O)OC)c1
0.0
N#CC(c1ccccc1)N(CCCCCCN(C(=O)c1ccccc1)C(C#N)c1ccccc1)C(=O)c1ccccc1 (stereo not given)
0.0
O=C1/C(=C/c2ccc(O)c(O)c2)CCC/C1=C\c1ccc(O)c(O)c1
0.0
C#Cc1nc(N)c2ncn(C3OC(COS(N)(=O)=O)C(O)C3O)c2n1 (stereo not given)
1.0
Cn1ccc(C(=O)NCCN(CCNC(=O)c2ccn(C)c(=O)c2O)CCNC(=O)c2ccn(C)c(=O)c2O)c(O)c1=O
0.0
Cn1ccc(C(=O)NCCN(CCNC(=O)c2ccn(C)c(=O)c2O)CCNC(=O)c2cccc(=O)n2O)c(O)c1=O
0.0
CCOC(=O)NC(=O)c1cn(-c2ccc(CCOC(=O)NCCCCCCNC(=O)OCCc3ccc(-n4c(=O)[nH]cc(C(=O)NC(=O)OCC)c4=O)cc3)cc2)c(=O)[nH]c1=O
0.0
OC1(c2ccc(Cl)cc2)C(N2CCCC2)c2ccccc2C2=NCCN21 (stereo not given)
0.0
CCC[C@H](N[S+]([O-])c1ccc(C)cc1)C(C(=O)OCC)=C(c1ccccc1)c1ccccc1 (stereo not given in full)
0.0
O=C(NNc1cn[nH]c(=O)n1)c1cccc2nc3ccccc3nc12
0.0
Clc1ccc(/N=C/C=C/Nc2ccc(Cl)cn2)nc1
0.0
O=C(c1ccco1)N(C(=S)OCc1ccccn1)c1ccccc1
0.0
S=C(N/N=C(\C(=N/NC(=S)N1CCCCC1)c1ccccn1)c1ccccn1)N1CCCCC1
0.0
Cc1nc(C)c(N2CCN(Cc3ccccc3)CC2)c(O)n1
0.0
Oc1cc(-c2ccccc2)nc2c(S)cccc12
0.0
NC(=S)N/C=C1\C(=O)Oc2ccccc2C1=O
0.0
C[C@H]1C/C=C/[C@H]2[C@@H]3O[C@]3(C)[C@@H](C)[C@H]3[C@H](Cc4ccccc4)NC(=O)[C@]32OC(=O)O/C=C/[C@@](C)(O)C1=O [CYTOCHALASIN E]
1.0

----------
Reported GI50 is given for each of the following compounds.
System: NCI-H23
assay_explanation: NCI tumour cell line growth inhibition, 48 h
Calls of active or inactive are those of the source. No stated cut-off is given here; in the data, active = GI50 up to about 1.1 µM and inactive = higher.
endpoint_name: GI50

CN1CCN2CCN(C)CCN(CC1)CC2
> 100 µM (inactive)
CN1C(=O)N/C(=C\c2ccc(S(=O)(=O)N/N=C/c3ccccc3)cc2)C1=O
23.3 µM (inactive)
CCCCC(=O)c1c(O)ccc2c(C)cc(=O)oc12
99.8 µM (inactive)
O=Cc1ccc(CCl)cc1
> 10 µM (inactive)
CCC12C=CCN3CCC4(C(=C(C(=O)OC)C1)Nc1ccccc14)[C@H]32 (stereo partly specified)
28.4 µM (inactive)
CC1S/C(=N\N=C2/C(=O)Nc3ccc(Br)cc32)N(C2CCCCC2)C1=O (stereo unspecified)
4.42 µM (inactive)

----------
System: EKVX
assay_explanation: NCI tumour cell line growth inhibition, 48 h
Activity calls are given as the source filed them. No stated cut-off is given here; in the data, active = GI50 up to about 1.1 µM and inactive = higher.
Labels: active, inactive

O=Cc1ccc(CCl)cc1
inactive
Cc1cc(N(CCC#N)CCC#N)ccc1/C=N/NC(=O)c1cc(Cl)ccc1O
inactive
O=C1[C@@H]2C(c3ccccc3[N+](=O)[O-])=NO[C@@H]2C(=O)N1c1ccc(Cc2ccc(N3C(=O)[C@H]4C(c5ccccc5[N+](=O)[O-])=NO[C@H]4C3=O)cc2)cc1
inactive
Cc1cnc2nc(-c3sccc3C)cc(O)c2c1
inactive
CN(C)[C@@H]1C(O)=C(C(=O)NCNCCCC(=O)O)C(=O)[C@@]2(O)C(O)=C3C(=O)c4c(O)cccc4[C@@](C)(O)[C@H]3C[C@@H]12
inactive
CC(C)(CN1CCCCC1)C(=O)CC(SCCS(=O)(=O)O)c1ccc(Cl)cc1 (centres undefined)
inactive
CCOc1ccc2nc3nc(O)nc(C)c3c(NC(C)(CO)CO)c2c1
inactive
COc1ccccc1/C=C/c1nc2ccccc2o1
inactive
C[C@H]1C/C=C/[C@H]2[C@@H]3O[C@]3(C)[C@@H](C)[C@H]3[C@H](Cc4ccccc4)NC(=O)[C@]32OC(=O)O/C=C/[C@@](C)(O)C1=O [CYTOCHALASIN E]
active

----------
In this section we review reported GI50 values for a set of compounds.
Tested on: T47D
assay_explanation: NCI tumour cell line growth inhibition, 48 h
Calls of active or inactive are those of the source. No stated cut-off is given here; in the data, active = GI50 up to about 1.1 µM and inactive = higher.
endpoint_name: GI50

C(/C=N/c1ccccc1)=C(/Nc1ccccc1)C12CC3CC(CC(C3)C1)C2
15.3 µM (inactive)
O=C(/N=N/c1ccc([N+](=O)[O-])cc1)NNc1ccc([N+](=O)[O-])cc1
9.14 µM (inactive)
O=C1c2ccccc2CN1c1ccc(OCCN2CCCCC2)cc1
> 10 µM (inactive)
Cc1cc(Cl)nc2nc(Cl)c(N)cc12
3.21 µM (inactive)
CC(C)(C)OC(=O)[C@@H]1ON2O[C@H](OC3CCCC3(c3ccccc3)c3ccccc3)C[C@H]3OC(=O)[C@@H]1[C@H]32 (stereo not given in full)
54 µM (inactive)

----------
Test system: SF-295
assay_explanation: NCI tumour cell line growth inhibition, 48 h
Calls of active or inactive are those of the source. Cut-off read from the data, not from the text of the source: active = GI50 up to about 1.1 µM and inactive = higher. Where a SMILES comes first, the peptide text is derived from it. The star is where a group is joined. Boc = CC(C)(C)OC(=O)*
Outcomes: y (active), n (inactive)

C/C(=N/NC(=S)N(Cc1ccccn1)Cc1ccccn1)c1cnccn1
y
CC(=O)NC(CC(C)C)C(=O)NC(Cc1ccccc1)C(=S)N1CCCC1 (stereo not given)
n
CCCCc1c2c(nc3c1CCC/C3=C\c1ccccc1)/C(=C/c1ccccc1)CCC2
n
C(/C=N/c1ccccc1)=C(/Nc1ccccc1)C12CC3CC(CC(C3)C1)C2
n
CC(OC(=O)C(CC(=O)OC(C)(C)C)NC(=O)OC(C)(C)C)C(=O)OCc1ccccc1 (stereo not given)
n
COC(=O)C1C=CCC2CCCCC21N1CCCC1 (stereo not given)
n
Nc1ncnc2c1ncn2C=C=CCO
n
CC(=O)OC1COC(Nc2nc(NCc3ccccc3)n(C)c(=O)c2N=O)C(OC(C)=O)C1OC(C)=O (stereo not given)
n
COC1=CCC=C(C[C@@H]2NCCc3cc(OC)c(OC)cc32)C1
n
ClC1(Cl)C(c2ccccc2)C1c1ccccc1 (stereo not given)
n
CC(C)=CC(=O)c1[nH]c2ccccc2c1CC(=O)NCCc1cncn1C
n
C=CCC1(c2ccc(OC)cc2)C=CC(=O)CC1 (stereo not given)
n
Oc1cc(-c2ccccc2)nc2c(S)cccc12
n
COc1ccccc1/C=C/c1nc2ccccc2o1
n
CCOc1ccc(N/C(=C(/C(Cl)=C(/Cl)NCCO)[N+](=O)[O-])n2nnc3ccccc32)cc1
n
CC(C)[C@H](NC(=O)[C@@H](O)[C@H](N)Cc1ccccc1)C(=O)N[C@@H](Cc1ccccc1)C(=O)O
n
C#Cc1nc(N)c2ncn(C3OC(COS(N)(=O)=O)C(O)C3O)c2n1 (stereo not given)
y
CC1=C(C#N)C(=O)N(/N=C/c2ccc(Cl)cc2)C(=O)/C1=c1\o/c(=C2/C(=O)N(/N=C/c3ccc(Cl)cc3)C(=O)C(C#N)=C2C)c2nccnc12
n
CCC12C=CCN3CCC4(c5cc(C6(C(=O)OC)CCCCCc7c6[nH]c6ccccc76)c(OC)cc5N(C)C4C(O)(C(=O)OC)C1OC(C)=O)C32 (stereo not given)
n
N/N=C(\Nc1ccccc1)SCc1ccccc1
n
CCOC(=O)C1(C)C2=CC=C(O2)C(C)(C)C2=CC=C(O2)C(C)(C)C2=CC=C(O2)C(C)(C)C2=CC=C1O2
n
COc1cc(C2S/C(=C/c3ccccc3)C(=O)N2c2ccc(Cl)cc2)cc(OC)c1OC (stereo not given)
n
CN1C(=O)N/C(=C\c2ccc(S(=O)(=O)N/N=C/c3ccccc3)cc2)C1=O
n
O=C(O)C(=Cc1ccc(-c2ccc([N+](=O)[O-])cc2)o1)C(=O)O
n
O=C1C(Cl)=C(NCCCN2CCOCC2)C(=O)c2c(O)ccc(O)c21
n
CCCC(=O)NC(NC1CCCCC1)(C(=O)OCC)C(F)(F)F (stereo not given)
n
O=c1cccccc1NCCNc1cccccc1=O
n
OCCOCn1nc(-c2ccccc2)nc1-c1cnccn1
n
CC(Oc1ccc(Cl)cc1Cl)C(=O)NN1C(=O)CSC1c1ccc(Cl)cc1 (stereo not given)
n
Cc1ccc(-c2n[nH]c(=O)[nH]2)cc1
n
O/N=C(\C=N\O)c1ccc2c(c1)Sc1ccccc1O2
n
CO[C@@]12CC(=O)/C(=C(O)\C=C\c3ccccc3)C(=O)[C@]1(OC)Cc1ccccc1O2
n
CCOC(=O)C1=C(Cl)c2cccnc2C1=O
n
CC(NC(=O)C(NC(=O)OC(C)(C)C)C(C)C)C(=O)NCC(=O)O (stereo not drawn) (Boc-Val-Ala-Gly-OH; configuration not given here)
n
O=C1c2ccccc2CN1c1ccc(OCCN2CCCCC2)cc1
n
COc1cc(C(=O)N(C)N(C)C)cc(OC)c1OC
n
Cc1c(O)c(OC2OC(CO)C(O)C(O)C2O)cc2c1CC[C@@H]1C2(C)C(=O)C[C@]2(C)[C@@H]([C@@](C)(O)C(O)/C=C/C(C)(C)O)[C@H](O)C[C@@]12C (stereo not given in full)
n
CCC12C=CCN3CCC4(C(=C(C(=O)OC)C1)Nc1ccccc14)[C@H]32 (stereo not given in full)
n
CCC(=O)N/N=C(\C=C\c1cccc(O)c1)c1sc(Nc2ccc(C)cc2[N+](=O)[O-])nc1C
n
COc1cccc2c1C(=O)c1c(O)c3c(c(O)c1C2=O)C[C@@](O)(C(C)=O)C[C@@H]3OC1CC(N(Cc2ccccc2)Cc2ccccc2)C(O)C(C)O1 (stereo not given in full)
n
